experiment: self-splicing fitness, log relative to wild type (ln ratio); higher = more splicing; Tetrahymena group I intron in knt gene, E. coli kanamycin selection, DiMSum; sequences stand for … in CUCUCU…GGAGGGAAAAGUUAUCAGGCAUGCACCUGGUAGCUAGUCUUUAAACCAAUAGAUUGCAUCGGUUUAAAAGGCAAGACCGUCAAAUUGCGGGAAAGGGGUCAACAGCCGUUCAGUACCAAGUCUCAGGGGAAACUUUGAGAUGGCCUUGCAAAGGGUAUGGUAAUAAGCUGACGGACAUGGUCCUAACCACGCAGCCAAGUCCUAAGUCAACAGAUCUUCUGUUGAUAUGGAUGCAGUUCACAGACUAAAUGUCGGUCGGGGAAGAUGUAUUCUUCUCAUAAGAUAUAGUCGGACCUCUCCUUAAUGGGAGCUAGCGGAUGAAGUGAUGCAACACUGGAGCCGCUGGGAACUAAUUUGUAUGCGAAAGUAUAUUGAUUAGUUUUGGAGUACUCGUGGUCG; details: 30 °C;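 note: selection with 25 µg/mL kanamycin versus none on LB agar overnight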
So I've got a bunch of sequences here, and I need their self-splicing fitness (ln) values.
Numbers only.

Solved cases (5 shown):
sequence string | endpoint result
CACGAGCAAUAUUACGCCAC | -2.97
CACGAGCAAUAUUACGCGGA | -3.61
GGUCAGCAAUAUUACGUGUU | -0.208
AUCAAGCAAUAUUACGGAAG | -2.78
AAACAGCAAUAUUACGCAGA | -2.53

Batch: self-splicing fitness (ln) for all items listed.
1. GAGCAGCAAUAUUACGGAGU
2. AGAGAGCAAUAUUACGAGGC

a:
[-3.32, -2.09]

Batch: self-splicing fitness (ln) for all items listed.
1. CCCCAGCAAUAUUACGCGCC
2. UAAAAGCAAUAUUACGGAGC
3. UGGCAGCAAUAUUACGAAGU
4. ACGGAGCAAUAUUACGGUCC
5. CUGAAGCAAUAUUACGCGAG

a:
1. -3.19
2. -4.1
3. -3.69
4. -3.38
5. -0.671

* * *

So I've got a bunch of sequences here, and I need their self-splicing fitness (ln) values.
assay: self-splicing fitness, log relative to wild type (ln ratio); higher = more splicing; Tetrahymena group I intron in knt gene, E. coli kanamycin selection, DiMSum; sequences stand for … in CUCUCU…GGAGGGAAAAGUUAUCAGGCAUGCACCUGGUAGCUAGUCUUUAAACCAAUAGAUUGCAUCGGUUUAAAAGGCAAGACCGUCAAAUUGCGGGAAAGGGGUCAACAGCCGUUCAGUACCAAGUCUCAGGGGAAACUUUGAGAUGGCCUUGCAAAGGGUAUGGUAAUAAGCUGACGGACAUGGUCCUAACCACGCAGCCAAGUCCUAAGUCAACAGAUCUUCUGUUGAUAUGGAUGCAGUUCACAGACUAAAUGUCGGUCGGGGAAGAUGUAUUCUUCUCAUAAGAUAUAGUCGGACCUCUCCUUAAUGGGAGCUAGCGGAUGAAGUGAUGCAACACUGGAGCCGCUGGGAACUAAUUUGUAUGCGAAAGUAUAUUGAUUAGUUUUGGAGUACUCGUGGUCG; settings: 30 °C

Solved cases (2 shown):
sequence string | self-splicing fitness (ln)
AUCGAGCAAUAUUACGUUGU | -4
GCUCAGCAAUAUUACGCCAG | -3.54

Batch: self-splicing fitness (ln) for all items listed.
1. CAUCAGCAAUAUUACGUGUU
2. CUUCAGCAAUAUUACGCUCC
3. AUCGAGCAAUAUUACGUGAG
4. CCACAGCAAUAUUACGACAU
5. GACUAGCAAUAUUACGAAUA

a:
1: -2.31; 2: -2.61; 3: -1.78; 4: -3.7; 5: -2.54

Batch: self-splicing fitness (ln) for all items listed.
1. UCGCAGCAAUAUUACGCGCG
2. AGAAAGCAAUAUUACGAGGU
3. CGCGAGCAAUAUUACGGAAA
4. GAAUAGCAAUAUUACGACUG
5. UAAUAGCAAUAUUACGGGCA

a:
-3.58
-3.59
-2.72
0.089
-0.899

* * *

assay: self-splicing fitness, log relative to wild type (ln ratio); higher = more splicing; Tetrahymena group I intron in knt gene, E. coli kanamycin selection, DiMSum; sequences stand for … in CUCUCU…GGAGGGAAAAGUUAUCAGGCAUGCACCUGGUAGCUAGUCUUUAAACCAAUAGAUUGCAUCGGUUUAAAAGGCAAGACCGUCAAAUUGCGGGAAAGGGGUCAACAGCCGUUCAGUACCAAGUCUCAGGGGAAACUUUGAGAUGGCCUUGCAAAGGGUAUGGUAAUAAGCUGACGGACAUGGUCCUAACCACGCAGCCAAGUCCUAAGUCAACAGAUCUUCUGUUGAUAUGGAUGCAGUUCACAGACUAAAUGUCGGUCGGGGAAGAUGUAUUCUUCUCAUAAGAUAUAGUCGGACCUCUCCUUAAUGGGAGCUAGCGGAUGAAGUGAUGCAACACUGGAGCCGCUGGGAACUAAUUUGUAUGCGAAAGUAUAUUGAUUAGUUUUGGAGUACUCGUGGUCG; settings: 30 °C
So I've got a bunch of sequences here, and I need their self-splicing fitness (ln) values.
Answers are plain numbers.

sequence string | recorded endpoint | endpoint result
UUGAAGCAAUAUUACGCGCG | self-splicing fitness (ln) | 0.0526
UGGCAGCAAUAUUACGCGGG | self-splicing fitness (ln) | -2.76
CUGUAGCAAUAUUACGUACG | self-splicing fitness (ln) | -1.43
GCGGAGCAAUAUUACGCAAG | self-splicing fitness (ln) | -2.73
CCACAGCAAUAUUACGGAAU | self-splicing fitness (ln) | -3.23
GUAUAGCAAUAUUACGCCCU | self-splicing fitness (ln) | -0.766
CUCUAGCAAUAUUACGCUAU | self-splicing fitness (ln) | -3.8
UGAUAGCAAUAUUACGUCUG | self-splicing fitness (ln) | -0.116

Batch: self-splicing fitness (ln) for all items listed.
1. ACUUAGCAAUAUUACGUGCG
2. UAGUAGCAAUAUUACGGCGA
3. UGAUAGCAAUAUUACGACCU
4. ACUGAGCAAUAUUACGAAUG

a:
1. -1.29
2. -1.17
3. -1.09
4. -3.69

* * *

assay: self-splicing fitness, log relative to wild type (ln ratio); higher = more splicing; Tetrahymena group I intron in knt gene, E. coli kanamycin selection, DiMSum; sequences stand for … in CUCUCU…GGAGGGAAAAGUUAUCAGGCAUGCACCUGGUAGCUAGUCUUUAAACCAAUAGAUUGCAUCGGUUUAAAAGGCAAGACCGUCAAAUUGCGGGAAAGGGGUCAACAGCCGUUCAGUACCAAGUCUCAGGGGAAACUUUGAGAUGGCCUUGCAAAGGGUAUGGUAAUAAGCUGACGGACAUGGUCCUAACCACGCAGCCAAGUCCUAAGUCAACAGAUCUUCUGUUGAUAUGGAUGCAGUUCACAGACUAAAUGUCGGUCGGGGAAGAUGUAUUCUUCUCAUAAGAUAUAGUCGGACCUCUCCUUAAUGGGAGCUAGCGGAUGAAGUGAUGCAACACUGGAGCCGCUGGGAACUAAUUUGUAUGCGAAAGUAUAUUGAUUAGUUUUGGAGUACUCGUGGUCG; details: 37 °C
Kindly return Condition met if reported self-splicing fitness (ln) is no lower than -2; return Condition not met if it is lower.

sequence string | class
CGUAAGCAAUAUUACGGGUA | Condition not met
UGUCAGCAAUAUUACGGCAA | Condition met
UGCCAGCAAUAUUACGCUUC | Condition met

q: Record UGCUAGCAAUAUUACGGCAA ; criterion: self-splicing fitness (ln) no lower than -2. Met?
a: Condition met

q: Record CGGCAGCAAUAUUACGGGUC ; criterion: self-splicing fitness (ln) no lower than -2. Met?
a: Condition met

q: Record ACUUAGCAAUAUUACGGCUA ; criterion: self-splicing fitness (ln) no lower than -2. Met?
a: Condition met

* * *

So I've got a bunch of sequences here, and I need their self-splicing fitness (ln) values.
experiment: self-splicing fitness, log relative to wild type (ln ratio); higher = more splicing; Tetrahymena group I intron in knt gene, E. coli kanamycin selection, DiMSum; sequences stand for … in CUCUCU…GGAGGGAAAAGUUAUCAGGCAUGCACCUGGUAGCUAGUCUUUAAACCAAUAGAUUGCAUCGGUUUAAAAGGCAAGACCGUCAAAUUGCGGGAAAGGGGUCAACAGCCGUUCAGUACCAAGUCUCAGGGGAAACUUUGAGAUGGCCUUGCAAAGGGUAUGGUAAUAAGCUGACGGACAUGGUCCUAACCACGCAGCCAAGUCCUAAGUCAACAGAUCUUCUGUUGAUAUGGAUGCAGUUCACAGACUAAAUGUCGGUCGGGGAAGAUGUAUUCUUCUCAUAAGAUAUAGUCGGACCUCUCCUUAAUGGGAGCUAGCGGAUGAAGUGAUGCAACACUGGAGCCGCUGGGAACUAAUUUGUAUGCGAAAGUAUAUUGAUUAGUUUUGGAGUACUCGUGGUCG; details: 37 °C
One number for each entry.

Solved cases (3 shown):
sequence string | self-splicing fitness (ln)
CGGGAGCAAUAUUACGGUAG | -2
UGUCAGCAAUAUUACGAUAG | 0.347
GAAUAGCAAUAUUACGACUU | 0.548

Batch: self-splicing fitness (ln) for all items listed.
1. AUGUAGCAAUAUUACGAAGG
2. GUUAAGCAAUAUUACGGAUG
3. CAUAAGCAAUAUUACGCGUU
4. CAAAAGCAAUAUUACGAUUU
5. GACUAGCAAUAUUACGGUUC
6. UAAAAGCAAUAUUACGCAUA

a:
1. -2.61
2. -0.786
3. -1.55
4. -0.732
5. -2.7
6. -0.782

Batch: self-splicing fitness (ln) for all items listed.
1. CGACAGCAAUAUUACGCGGG
2. CCUGAGCAAUAUUACGGUCG
3. CGAAAGCAAUAUUACGUAGC
4. UCACAGCAAUAUUACGGCAU
5. CGAGAGCAAUAUUACGCCUU
6. UUUAAGCAAUAUUACGUGAA

a:
-2.39
-2.97
-2.39
-2.26
-1.07
-0.616

q: So what's the measured self-splicing fitness (ln) for this one? GGACAGCAAUAUUACGGAUG
a: -0.131
